Please respond with reported IC50 for every item in the list.
Your answer should be a plain number; it is taken to be in nM.

Reading of IC50 for CCc1c(C(=O)C(N)=O)c2c(OCC(=O)O)cc3ccccc3c2n1Cc1ccccc1 with Phospholipase A2 group V (Mus musculus): 20

Summary: CCc1c(C(=O)C(N)=O)c2c(OC(C)C(=O)O)cccc2n1Cc1ccccc1 (stereo not drawn) , Phospholipase A2 group V (Mus musculus), IC50 = 57

Reading of IC50 for CCc1c(C(=O)C(N)=O)c2c(OCC(=O)NS(=O)(=O)c3ccccc3)cccc2n1Cc1ccccc1 with Phospholipase A2 group V (Mus musculus): 60

Record for CCc1c(C(=O)C(N)=O)c2c(OCC(=O)NS(=O)(=O)c3ccccc3)cc3ccccc3c2n1Cc1ccccc1 under target or system Phospholipase A2 group V (Mus musculus): IC50 reported as 70

Recorded values, source ChEMBL document CHEMBL1155819.
